# TGT: PDGFRβ (purified cytoplasmic domain PDGFR-b protein) (Homo sapiens (Human), UniProt P09619)
# Sequence (P09619 554-1106): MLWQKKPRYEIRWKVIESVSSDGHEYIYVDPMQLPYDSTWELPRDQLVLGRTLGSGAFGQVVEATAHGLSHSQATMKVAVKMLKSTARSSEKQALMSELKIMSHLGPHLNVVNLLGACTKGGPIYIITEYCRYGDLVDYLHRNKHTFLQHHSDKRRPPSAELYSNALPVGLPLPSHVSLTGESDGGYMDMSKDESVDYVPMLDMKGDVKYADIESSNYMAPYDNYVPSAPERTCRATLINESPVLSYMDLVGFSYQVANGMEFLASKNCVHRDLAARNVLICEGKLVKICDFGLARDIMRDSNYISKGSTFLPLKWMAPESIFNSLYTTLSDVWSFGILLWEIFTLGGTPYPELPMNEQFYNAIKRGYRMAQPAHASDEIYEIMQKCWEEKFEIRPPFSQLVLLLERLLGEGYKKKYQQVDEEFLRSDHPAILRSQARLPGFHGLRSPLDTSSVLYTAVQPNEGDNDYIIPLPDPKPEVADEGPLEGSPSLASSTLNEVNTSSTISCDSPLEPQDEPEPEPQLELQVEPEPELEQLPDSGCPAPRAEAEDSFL
# METHOD: PDGFRβ Kinase Assay (biochemical, ELISA)
# RECORDED_CONDITIONS: 36 μM ATP, 60 minute incubation at 30° C.; read-out: PDGFRβ Enzyme Assay (IC50 nM)
READOUT_LABEL: IC50 (nM)

>  <SAMPLE_SMILES>
Cc1ccc(NC(=O)Nc2ccc(-c3nsc(NC(=O)NCCCC(=O)O)c3C(N)=O)cc2)cc1

>  <IC50 [nM]>
10

$$$$
>  <SAMPLE_SMILES>
Cc1ccc(NC(=O)Nc2ccc(-c3nsc(NC(=O)NCCCN4CCCC4)c3C(N)=O)cc2)cc1

>  <IC50 [nM]>
12

$$$$
